Measured IC50 by item
Biological target: TBK1 (Homo sapiens, UniProt Q9UHD2)
Construct: purchased Promega V3991
Sequence (Q9UHD2 1-729): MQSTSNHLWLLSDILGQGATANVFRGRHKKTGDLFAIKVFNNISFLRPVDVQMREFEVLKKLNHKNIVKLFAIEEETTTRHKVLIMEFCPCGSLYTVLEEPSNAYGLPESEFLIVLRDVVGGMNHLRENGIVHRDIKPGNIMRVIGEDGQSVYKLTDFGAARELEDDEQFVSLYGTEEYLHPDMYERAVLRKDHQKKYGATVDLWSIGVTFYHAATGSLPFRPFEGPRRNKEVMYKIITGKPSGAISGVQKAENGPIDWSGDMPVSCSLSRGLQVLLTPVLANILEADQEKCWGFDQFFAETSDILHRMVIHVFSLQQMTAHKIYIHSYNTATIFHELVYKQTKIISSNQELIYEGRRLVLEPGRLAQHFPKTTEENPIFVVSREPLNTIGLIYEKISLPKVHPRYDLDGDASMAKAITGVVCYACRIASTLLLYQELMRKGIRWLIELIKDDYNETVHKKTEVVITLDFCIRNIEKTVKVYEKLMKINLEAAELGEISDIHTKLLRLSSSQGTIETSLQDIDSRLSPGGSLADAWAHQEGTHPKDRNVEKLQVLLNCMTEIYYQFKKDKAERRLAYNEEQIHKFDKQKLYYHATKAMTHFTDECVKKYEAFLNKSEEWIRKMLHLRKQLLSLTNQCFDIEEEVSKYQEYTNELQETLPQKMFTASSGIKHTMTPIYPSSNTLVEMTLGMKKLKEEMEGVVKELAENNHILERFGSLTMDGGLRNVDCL
Test: TBK1 inhibition, ADP-Glo Kinase Assay
Assay type: biochemical
Details: luminometer
Respond numerically; units are µM and should not be typed.

{"COMPOUND": "O=C(NCc1cccs1)c1ccc2[nH]nc(NC(=O)c3ccc(O)cc3)c2c1 [Example 200]", "UNIT_ABBREV": "µM", "IC50": 0.093}
{"COMPOUND": "O=C(NCC1CCCC1)c1ccc2[nH]nc(NC(=O)c3ccc(N4CCOCC4)cc3)c2c1 [Example 91, 2,2,2-trifluoroacetate]", "UNIT_ABBREV": "µM", "IC50": 0.0053}
{"COMPOUND": "COc1ccc(C(=O)Nc2n[nH]c3ccc(-c4ccc(CN5CCOCC5)s4)cc23)cc1 [Example 12]", "UNIT_ABBREV": "µM", "IC50": 0.43}

# next compound below
The compound CCC(NC(=O)c1ccc2[nH]nc(NC(=O)c3ccc(N4CCN(C)CC4)cc3)c2c1)c1cccs1 (stereo not shown) [Example 55] showed IC50 equal to 0.00093
